B1: glmS ribozyme (parent)
chain: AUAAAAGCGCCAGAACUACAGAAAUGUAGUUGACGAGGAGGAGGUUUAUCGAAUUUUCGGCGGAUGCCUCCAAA

Variants of: B1
Assay: self-cleavage kobs at 160 uM GlcN6P; higher = faster cleavage; RNA array
Conditions: with glucosamine-6-phosphate
This sample holds only a part of the variants without activity.
Measurement label: self-cleavage kobs at 160 uM GlcN6P

Variant id | self-cleavage kobs at 160 uM GlcN6P
G9A A36U C68U | < 1e-05 s⁻¹

Ask | If you can, please state the reported self-cleavage kobs at 160 uM GlcN6P value of U30C G43A .
Reply | < 1e-05 s⁻¹

Ask | If you can, please state the reported self-cleavage kobs at 160 uM GlcN6P value of A14U G29A .
Reply | 4.16e-05 s⁻¹

Ask | If you can, please state the reported self-cleavage kobs at 160 uM GlcN6P value of U31G G43A C61A C68A .
Reply | < 1e-05 s⁻¹

Ask | If you can, please state the reported self-cleavage kobs at 160 uM GlcN6P value of C11A U69G .
Reply | 0.000398 s⁻¹

Ask | If you can, please state the reported self-cleavage kobs at 160 uM GlcN6P value of U31A G62C C71U .
Reply | < 1e-05 s⁻¹
